Source listed as ChEMBL document CHEMBL5608141.

# System: Colon cancer organoid
# Method notes: Identification of compartment-specific drug sensitivities in O20 CRC organoid-stroma F20 CAF co-cultures. Organoid is transduced with Lucferase2-P2A-EGFP lentivirus, fibroblast with Renilla-dsRed lentivirus. Dual-Glo Luciferase assay is used to report viability data.
# Type: functional, Homo sapiens
# Parameters: dose or concentration left out as unconfirmed
# Details: Transduced with Lucferase2-P2A-EGFP lentivirus
Measured attribute: Cell Viability (%)
Give bare numbers, in %.

Some compounds with recorded Cell Viability:
- Chemical structure: "O=C(O)[C@@H]1[C@@H](Cn2nnc3ccccc3c2=O)CC[C@H]1C(=O)c1ccc(OCCC2CCOCC2)cc1"
  Cell Viability / %: 92.0939
- Chemical structure: "COCC(=O)NC/C=C/c1ccc2ncnc(Nc3ccc(Oc4ccc(C)nc4)c(C)c3)c2c1"
  Cell Viability / %: 97.2693
- Chemical structure: "CN1C(=O)c2sccc2N(C)c2nc(Nc3ccc(S(N)(=O)=O)cc3)ncc21"
  Cell Viability / %: 35.7299

Batch of 2 compounds: report Cell Viability for each.
1. CN([C@@H]1CCc2c(CC(=O)O)c3ccccc3n2C1)S(=O)(=O)c1ccc(F)cc1
2. COc1cc(Nc2nccc(-c3cnn4nc(OC)ccc34)n2)cc(C(F)(F)F)c1

94.6909
11.0854

Batch of 3 compounds: report Cell Viability for each.
1. Cc1cc(-n2nc(Cc3cc(F)cc(C(F)(F)F)c3)nc2C)ccc1C(N)=O
2. CN(C)C(=O)Cn1cc(-c2ccc(-c3cncc4ccccc34)cc2)cn1
3. CN(C)C(=O)c1cc2cnc(Nc3ccc(N4CCNCC4)cn3)nc2n1C1CCCC1

[120.055, 98.3492, 36.7036]

Suppose we examine the compound O=C(NCCCN1CCOC1=O)c1cnc(NCc2cc(Br)ccc2Br)nc1NC1CCCC1 ; what Cell Viability value has been reported?
103.947
